Test system: CCRF-CEM leukemia
Experiment: NCI tumour cell line growth inhibition, 48 h
MEASURED PROPERTY: TGI (µM)
Give a bare numeral; the unit µM is implied.

Request: For the compound COc1cc([C@@H]2c3cc4c(cc3[C@@H](Nc3ccc(N=Cc5ccc(C(=O)O[C@@H](C(=O)O[C@H]6C[C@@]7(O)[C@@H](OC(=O)c8ccccc8)[C@@H]8[C@]9(OC(C)=O)CO[C@@H]9C[C@H](O)[C@@]8(C)C(=O)[C@H](OC(C)=O)C(=C6C)C7(C)C)[C@@H](NC(=O)c6ccccc6)c6ccccc6)cc5)cc3)[C@H]3COC(=O)[C@H]23)OCO4)cc(OC)c1O , give its reported TGI.
Response: 11

Request: Hello, please tell me recorded TGI for this one: O=C(c1nc2ccc(Cl)cc2[nH]c1=O)C(O)c1ccccc1 (configuration not stated)
Response: 25.4

Request: Consider the compound CC(C)=[CH][Sb]([Br])([CH]=C(C)C)([CH]=C(C)C)[c]1ccccc1 . State its measured TGI.
Response: 46.6

Request: Kindly indicate its recorded TGI. Item: O=c1cc(-c2ccccc2)c2ccc(O)c(CN(CCCl)CCCl)c2o1
Response: 20.7

Request: Identify the reported TGI for the following entry. O=C1Nc2ccccc2/C1=C\c1c(Cl)nc2sccn12
Response: 15.8

Request: Supply measured TGI of COc1ccc(CC(C)=C(c2ccc(OCCN3CCCCCC3)cc2)c2ccc(OCCN3CCCCCC3)cc2)cc1 in your reply.
Response: 0.609

Request: Identify measured TGI associated with CCCN=Cc1c(O)c(O)c(C(C)C)c2cc(C)c(-c3c(C)cc4c(C(C)C)c(O)c(O)c(C=NCCC)c4c3O)c(O)c12
Response: 13.4

Request: Quick one: give measured TGI for O=[N+]([O-])c1ccc(C2=Nn3c(nnc3-c3ccccc3)SC2)o1
Response: 20.2

Request: Give the value of TGI reported for the following: CCO/C=N/C1=C(C#N)C(c2ccc(OC)cc2)c2sc3c(F)cccc3c2O1 (configuration not stated)
Response: 28.7

Request: Write down TGI measured for item C[C@@]1(Br)C[C@@](C)(Cl)[C@@H](Br)CC1/C=C/Cl (some centres not stated)
Response: 27.7

Request: Complete the entry with TGI for COc1cc(OC)c2c(c1)C(=O)C(CC1(C)OCCCO1)=CC2=O
Response: 15.4

Request: Look up and report measured TGI for this entry: COc1cc2c3c(n(CCCNCCNCCN)c(=O)c2cc1OC)-c1cc2c(cc1C3=O)OCO2
Response: 1.58

Request: Look up TGI of Cc1ccc(O)c(C(c2ccc(C(c3cc(C)ccc3O)c3cc(C)ccc3O)cc2)c2cc(C)ccc2O)c1 and report it.
Response: 5.63

Request: State its TGI for this compound: O/N=C1/C(=C/c2ccc(Cl)c(Cl)c2)CCCC1C(NO)c1ccc(Cl)c(Cl)c1 (configuration not stated)
Response: 46.1

Request: Please report TGI for the following compound: O=CN(CCN1CCCC1)C1CCc2cc(Cl)c(Cl)cc2C1 (configuration not stated)
Response: 43.9
